Reference for the values: ChEMBL document CHEMBL5584339

Assay: Oral bioavailability in BALB/c mouse at 30 mg/kg measured upto 24 hrs by LC-MS/MS analysis
Type: ADME, organism-based
Settings: in vivo
readout_type: bioavailability (%)
The reply should contain only the number, in %.

substance_smiles	uom	bioavailability
CCCSc1nc2c(c(=O)[nH]1)[C@@H](c1ccc(OC)cc1[N+](=O)[O-])CC(=O)N2	%	63.8

May I ask what bioavailability has been recorded for CCCSc1nc2c(c(=O)[nH]1)[C@@H](c1ccc(OC)cc1)CC(=O)N2 ?
56.7

---

Test: Cytotoxicity against african green monkey Vero cells incubated for 48 hrs by CCK8 assay
Format: toxicity, cell-based, Chlorocebus sabaeus
readout_type: IC50 at 48 h (µg/mL)
The reply should contain only the number, in µg/mL.

May I ask what IC50 at 48 h has been recorded for CCCSc1nc2c(c(=O)[nH]1)C(c1ccc(OC)c(O)c1O)CC(=O)N2 (stereo not drawn) ?
27.5

---

Experiment: Cytotoxicity against african green monkey Vero cells incubated for 48 hrs by CCK8 assay
Assay type: toxicity, cell-based, Chlorocebus sabaeus
readout_type: IC50 at 48 h (µg/mL)
The reply should contain only the number, in µg/mL.

compound	uom	IC50 at 48 h
CCCCSc1nc2c(c(=O)[nH]1)C(c1ccc(OC)cc1O)CC(=O)N2 (stereo not drawn)	µg/mL	41.2
CCCCSc1nc2c(c(=O)[nH]1)C(c1ccc(OC)c(O)c1)CC(=O)N2 (stereo not drawn)	µg/mL	40.1
CCCSc1nc2c(c(=O)[nH]1)C(c1ccc(OC)cc1)CC(=O)N2C (stereo not drawn)	µg/mL	53.6
CCCSc1nc2c(c(=O)[nH]1)C(c1ccc(OC)c([N+](=O)[O-])c1)CC(=O)N2 (stereo not drawn)	µg/mL	67.5

May I ask what IC50 at 48 h has been recorded for CCCSc1nc2c(c(=O)[nH]1)C(c1ccc(OC(C)C)cc1)CC(=O)N2 (stereo not drawn) ?
24.9

---

Assay: AUCinfinity in BALB/c mouse at 5 mg/kg, iv measured upto 24 hrs by LC-MS/MS analysis
Format: ADME, organism-based
Conditions: in vivo
Listed below: AUC(0-inf) values for each entry.
The reply should contain only the number, in µg·h/mL.

substance_smiles	quantitative_result
CCCSc1nc2c(c(=O)[nH]1)[C@@H](c1ccc(OC)cc1)CC(=O)N2	125

Lab note: next compound to report on.
May I ask what AUC(0-inf) has been recorded for CCCSc1nc2c(c(=O)[nH]1)[C@@H](c1ccc(OC)cc1[N+](=O)[O-])CC(=O)N2 ?
175

---

Assay: Selectivity index, ratio of IC50 for african green monkey Vero cells to IC50 for Mycobacterium tuberculosis H37Rv
Format: toxicity
Details: read-out: Ratio IC50
Classification by selectivity ratio follows these ranges: bottom range (below 9), center range (9 to below 20), top range (20 or more)

molecule	class_assignment
CCCSc1nc2c(c(=O)[nH]1)C(c1ccc(OC)c(N)c1)CC(=O)N2 (centres undefined)	top range

Which bin, given its selectivity ratio, does COc1ccc(C2CC(=O)Nc3nc(SC(C)C)[nH]c(=O)c32)cc1 (centres undefined) occupy?
top range

Which bin, given its selectivity ratio, does CCCSc1nc2c(c(=O)[nH]1)C(c1ccccc1)CC(=O)N2C (centres undefined) occupy?
bottom range

Which bin, given its selectivity ratio, does CCCOc1ccc(C2CC(=O)Nc3nc(SCCC)[nH]c(=O)c32)cc1 (centres undefined) occupy?
center range
